Test: NCI Yeast Anticancer Drug Screen. Data for the mlh1 rad18 strain (AID 175)
Settings: S. cerevisiae mlh1 rad18 strain growth inhibition; at 50.0 µM; hits give high values
Method: Growth inhibition of yeast strains with defined genetic alterations is measured as a screen for potential anti-cancer activity. Selected strains with alterations in DNA damage repair or cell cycle control were exposed to compounds and growth inhibition was measured relative to vehicle treated controls. The strain used in this assay is mlh1 rad18
About 79,000 compounds went through this panel and 15% of them were active in at least one assay; those are over-represented in the sample as a whole. Calls of active or inactive are those of the source. No stated cut-off is given here; in the data, active means growth inhibition above about 70%; inactive means the rest. Where a SMILES comes first, the peptide text is derived from it. The star is where a group is joined. ONp = O=[N+]([O-])c1ccc(O*)cc1; Cbz = O=C(OCc1ccccc1)*; OBn = c1ccc(CO*)cc1
propertyName: growth inhibition

Some entries whose results are on file:
| molecule | growth inhibition |
| --- | --- |
| O=C(CNC(=O)C(CCC(=O)OCc1ccccc1)NC(=O)OCc1ccccc1)NCC(=O)NC(CO)C(=O)NCC(=O)Oc1ccc([N+](=O)[O-])cc1 (configuration not stated) (Cbz-E(OBn)GGSG-ONp; configuration not given here) | 20.4% (inactive) |
| CCC/C=C(/C=N/Nc1ccc([N+](=O)[O-])cc1[N+](=O)[O-])CC | 4.05% (inactive) |
| CC(=O)OCC1OC(n2cnc3c(N)ncnc32)CC1OC(C)=O (configuration not stated) | -18.6% (inactive) |
| COc1cc(C(=O)O)c(Cc2ccccc2)c(OC)c1O | -3.2% (inactive) |
| CC(=O)C1=CN(Cc2ccccc2)C(O)CC1C(N)=O (configuration not stated) | 1.3% (inactive) |
| CCOC(=O)C(NC(=O)c1ccccc1)(C(=O)OCC)c1ccccn1 | 22.6% (inactive) |
| C=CCc1cc(OC)c(O)c(C(=O)OCC)c1 | -2.15% (inactive) |
| Cc1ccc(S(=O)(=O)n2oc(N)c(Cc3ccccc3)c2=O)cc1 | -2.55% (inactive) |
| Cn1nnnc1CC(=O)O | -12.5% (inactive) |
| CC(=O)Oc1ccc(C(C)C)cc1 | -1.6% (inactive) |

Recorded growth inhibition (molecule O=C(NO)/C(CC(=O)c1ccc(O)cc1)=N\O ): 4.7% (inactive)

// growth inhibition value for N#CC(C#N)=CNc1cccc(Cl)c1 : 18.5% (inactive)

Per the records, this molecule ( CN1CCN(CCN2C(=O)c3ccccc3C2=O)CC1 ) has growth inhibition equal to -43.8% (inactive)

Data point: COC1CCC(/C(C#N)=C/C2CCC(N(C)C)CC2)CC1 (configuration not stated) ; growth inhibition = 18.6% (inactive)

Form field growth inhibition, entry O=C(Cc1nc2ccc([N+](=O)[O-])cc2[nH]c1=O)C(=O)Nc1ccccc1[N+](=O)[O-] : 6.05% (inactive)

Reported growth inhibition for O=c1[nH]cc(Cl)cc1[N+](=O)[O-] was 1.7% (inactive)

growth inhibition recorded for this molecule, COc1ccc(-c2cc(=O)c3c(O)cc(O)cc3o2)cc1Oc1ccc(-c2cc(=O)c3c(O)cc(O)cc3o2)cc1 , is 5.1% (inactive)

Per the record, Cc1ccc(NC(=O)/C(CC(=O)c2sc(Nc3ccccc3Cl)nc2C)=N\Nc2ccc([N+](=O)[O-])cc2[N+](=O)[O-])c(C)c1 has growth inhibition of -4.25% (inactive)
